target: Aspartate--tRNA(Asp/Asn) ligase (Mycobacterium tuberculosis (strain ATCC 25618 / H37Rv)); test: Assay for Asp RNA synthetase-1 from Mycobacterium tuberculosis; assay type: functional; parameters: scale not given: direction of the effect not stated beside the values; conditions: 30 µM; further: in the data most compounds retested in dose-response had high values
I'd appreciate it if you could supply Percent Effect values for the items below.
Give bare numbers, in %.

CN(C)c1ccc(C(=O)N2CCN(Cc3cscn3)CC2)cc1F :: 5.95

Each compound below has a recorded value; state its Percent Effect.
1. CN1CCN(C(=O)c2ccc(=O)n(C)c2)c2ccccc21
2. COc1cc2nc3n(c(=O)c2cc1OC)CCN(C(C)=O)CC3
3. O=C(Cn1cc(I)cn1)N1CCc2ccccc2C1
4. Cc1ccc(N2CCCc3sc(C(=O)NCc4cccnc4)nc32)nn1

1. -7.61
2. -0.551
3. 2.67
4. -2.44

Each compound below has a recorded value; state its Percent Effect.
1. CCc1ccc(CCC(=O)N2CCOCC2c2ncon2)cc1 (configuration not stated)
2. CN(Cc1ccc2c(c1)OCCO2)C(=O)Cn1cccnc1=O
3. O=C(c1cc(-n2cccc2)ccc1Cl)N1CCC2(CC1)OCCO2
4. CC(=O)N1CCC(c2ccnc(Nc3cncnc3)n2)C1 (configuration not stated)

1. 2.77
2. -2.54
3. 3.38
4. -0.956

Each compound below has a recorded value; state its Percent Effect.
1. Cc1c(O)oc(-c2ccc(Br)cc2)nc1=O
2. COc1c(CNC2CCN(C(=O)C3CC3)CC2)c(C(C)C)nn1C
3. CCCC(NC(=O)c1ccc(OC)cc1F)c1nnn[nH]1 (configuration not stated)

1. -1.84
2. 1.69
3. -1.41

====

target: Shiga toxin 2 (Escherichia coli O157:H7) (UniProt P09385+P09386); experiment: E. coli 0.157:H7 Shiga Toxin SOP - stx2 screening assay; type: functional; parameters: scale not given: direction of the effect not stated beside the values; details: 30 µM
I'd appreciate it if you could supply Percent Effect values for the items below.
Give bare numbers, in %.

Examples with answers:
Cc1cc(C(C)NC(=O)N2CCC(n3cncn3)CC2)c(C)s1 (stereo not given) :: 6.48
CC(CC#N)NC(=O)c1cc(Br)c2c(c1)OCCO2 (stereo not given) :: -5.44
Cc1cc(NC(=O)CCN(CC2CCOC2)C2CC2)no1 (stereo not given) :: -16.3
CC(C)(C)N1CCCN(C(=O)c2csc(S(N)(=O)=O)c2)CC1 :: -17.3

Each molecule below has a recorded value; state its Percent Effect.
1. Cc1cc2n(n1)CC(CNCc1ccc(-n3cccn3)nc1)CN2 (stereo not given)
2. CC(C)c1nc(C2CCCN2C(=O)c2nccnc2N)no1 (stereo not given)
3. COc1ccnc(N2CCN(C(=O)CN3CCCC3=O)CC2)n1
4. COC1CCCN(Cc2nc(Cc3ccccc3F)no2)C1 (stereo not given)
5. CC(NC(=O)CN(C)S(C)(=O)=O)c1nnc2n1CCCCC2 (stereo not given)

1: 3.5; 2: -16.2; 3: 13.5; 4: 6.38; 5: -25.1

Each molecule below has a recorded value; state its Percent Effect.
1. Cc1nc(CN2CCCC2c2c(C)nn(C)c2Cl)no1 (stereo not given)
2. O=C(CCc1cscn1)N1CCCC(n2ccnc2)C1 (stereo not given)

18.6
-12.2

Each molecule below has a recorded value; state its Percent Effect.
1. Cc1nc(CN2C(=O)C[C@H]3[C@H]2CCN3C2CCOCC2)cs1
2. Cc1nc(C2CCCN(C(=O)c3ccc(N4CCCC4)nc3)C2)no1 (stereo not given)
3. Cc1cnn(CC2CCCN2C(=O)c2nccc3ccccc23)c1 (stereo not given)
4. COCCN(C)C(=O)Nc1ccc2c(ccn2CCOC)c1
5. O=C(c1nc(-c2ccc3cc[nH]c3c2)no1)N1CCCC1
6. O=C(C1SCCc2sccc21)N1CCC(O)CC1 (stereo not given)

[9.23, -1.41, 28, -20.9, -77.4, -25.1]
